Tested on: HeLa
Assay: Cytotoxicity against human HeLa cells assessed as growth inhibition after 72 hrs by MTT assay
Type: functional, cell-based
IC50 overview
Give your result in µM as a bare value.

>>> endpoint_value("COc1ccc2c(Cn3cnc(C(N)=O)n3)cc(=O)oc2c1")
35.5

Here is another compound to look at.
Ask | Tell me the measured IC50 of Nc1nc(Cl)c2cnn(Cc3cc(=O)oc4cc(O)ccc34)c2n1 , please.
Reply | 34

----------
Assay: Cytotoxicity against rat CRL1439 cells after 48 hrs by crystal violet dye-binding assay
Assay type: cell-based
Conditions: read-out: LD50
measurement_kind: CC50 at 48 h (µM)
Give your result in µM as a bare value.

Ask | Tell me the measured CC50 at 48 h of CCN(CC)c1ccc2c(C)c(-c3ccc(OC(C)=O)cc3)c(=O)oc2c1 , please.
Reply | 49.1
